Kindly state normalized RNA/DNA level with ligand (log10) for each of the entries shown.
B1: library; a variant is named by its letters at N, in order (parent)
chain: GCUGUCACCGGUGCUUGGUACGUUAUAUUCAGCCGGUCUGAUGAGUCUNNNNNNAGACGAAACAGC

- Variants of: B1
- assay.overview: normalized RNA/DNA level with ligand (relative to sTRSVctl = 100) (log10 (% of sTRSVctl)); HEK293T overexpressing SLC46A1; ligand concentration (+) RNA-Seq: 6 mM; higher = less ribozyme self-cleavage, higher mRNA level
- test.settings: with (6R,S)-folinic acid; ligand present: yes
Give bare numbers.

// below: answered variants
CAUGCG : 2.01
CAGAGA : 2.01
UACCUC : 2.04
CUAGUC : 2.02
AUUCAG : 2.01

Each variant below has a recorded value; state its normalized RNA/DNA level with ligand (log10).
1. CGAAGC
2. UUUCGC
3. UAAUCC
4. CAAGUC
5. CAUUCU

**A:**
[2.04, 2, 2.03, 2.02, 2.01]

Each variant below has a recorded value; state its normalized RNA/DNA level with ligand (log10).
1. GUAUAU
2. GUGAUC
3. CGAUUG
4. UAGAGG

**A:**
1: 1.97; 2: 2.04; 3: 2.02; 4: 1.9

Each variant below has a recorded value; state its normalized RNA/DNA level with ligand (log10).
1. ACCGGC
2. GUAUUU
3. GAUUCC
4. CUUCGG
5. GUCGGC
6. UUAUCA

**A:**
[2.08, 2.01, 2.04, 2.04, 2.03, 2.01]

Each variant below has a recorded value; state its normalized RNA/DNA level with ligand (log10).
1. CCGAGG
2. AGUAAC
3. GUUAUA
4. AGCUCC

**A:**
[2.01, 2.01, 2.01, 2.04]
